Experimental Details: Human liver microsome (HLM) metabolic stability assay
Type: in vitro ADME
Experimental Setup: human liver microsomes
Measurement Type: Metabolic stability (Qh %), % hepatic blood flow

CO[C@H]1CN(c2nc(-c3cccc(C)c3OCc3cc(F)c4c(c3)CCN(C3CCOCC3)C4)cs2)CC[C@H]1C(=O)O :: <24%
CO[C@@H]1CN(c2cccc(-c3cccc(C)c3OCc3ccc4c(c3C)CCN([C@@H]3CCOC3)CC4)n2)CC[C@@H]1C(=O)O :: <24%
CO[C@H]1CN(c2nc(-c3cccc(C)c3OCc3cc(C)c4c(c3)CCN(CC3COCCO3)C4)cs2)CC[C@H]1C(=O)O (stereo partly shown) [Compound 168] :: <24%
CO[C@@H]1CN(c2cccc(-c3cc(C)ccc3OCc3cc(C)c4c(c3)CCN(C3CCOC3)C4)n2)CC[C@@H]1C(=O)O (stereo partly shown) [Compound 77] :: <24%

In: Tell me Metabolic stability (Qh %), % hepatic blood flow reported for CCO[C@@H]1CN(c2nc(-c3cc(C)ccc3OCc3cc(OC)c4c(c3F)CCN(C3CCOCC3)C4)cs2)CC[C@@H]1C(=O)O
Out: <24%

In: // Input: COC[C@H]1N(c2cccc(-c3cccc(C)c3OCc3ccc4c(c3C)CCN(C3CCOCC3)CC4)n2)C[C@@H]2C[C@@]21C(=O)O . Output its Metabolic stability (Qh %), % hepatic blood flow only.
Out: <24%

In: Provide Metabolic stability (Qh %), % hepatic blood flow value for the following compound: Cc1cccc(-c2csc(N3CC[C@@]4(C(=O)O)C[C@H]4C3)n2)c1OCc1ccc2c(c1C)CCN(C1CCCOC1)C2 (stereo partly shown)
Out: 55%

In: Read the entry COC[C@H]1N(c2cccc(-c3cccc(C)c3OCc3cc(C)c4c(c3)CCN(C3CCOC3)C4)n2)C[C@@H]2C[C@@]21C(=O)O (single isomer, unassigned) [Compound 51] and write its reported Metabolic stability (Qh %), % hepatic blood flow.
Out: 28%

In: Provide one value: measured Metabolic stability (Qh %), % hepatic blood flow of CO[C@H]1CN(c2nc(-c3cccc(C)c3OCc3ccc4c(c3C)CCN(C3CCOCC3)CC4)cs2)CC[C@H]1C(=O)O
Out: <24%

In: Give the reported value of Metabolic stability (Qh %), % hepatic blood flow for this record: COC[C@H]1N(c2cccc(-c3cccc(C)c3OCc3cc(C)c4c(c3)CCN(C3CCOC3)C4)n2)C[C@@H]2C[C@@]21C(=O)O (single isomer, unassigned) [Compound 52]
Out: 38%

In: // fetch Metabolic stability (Qh %), % hepatic blood flow given entry CO[C@@H]1CN(c2cccc(-c3cccc(C)c3OCc3cc(C)c4c(c3)CCN(C3CCOCC3)CC4)n2)CC[C@@H]1C(=O)O
Out: 25%

In: Input Cc1c(COc2ccccc2-c2cccc(N3CC[C@@]4(C(=O)O)C[C@H]4C3)n2)ccc2c1CCNC2 , output reported Metabolic stability (Qh %), % hepatic blood flow.
Out: 30%

In: Return Metabolic stability (Qh %), % hepatic blood flow for the following compound: CCO[C@H]1CN(c2nccc(-c3cccc(C)c3OCc3cc(C)c4c(c3)CCN(C3CCOCC3)C4)n2)CC[C@H]1C(=O)O
Out: <24%

In: Provide measured Metabolic stability (Qh %), % hepatic blood flow value, entry: Cc1cccc(-c2csc(N3CC[C@@]4(C(=O)O)C[C@H]4C3)n2)c1OCc1ccc2c(c1)CCN(C1CCOCC1)C2
Out: <24%

In: Note down Metabolic stability (Qh %), % hepatic blood flow recorded for COCc1cc(COc2c(C)cccc2-c2cccc(N3CC[C@H](C(=O)O)[C@H](OC)C3)n2)cc2c1CN(C1CCOC1)CC2 (stereo partly shown)
Out: <24%

In: # return recorded Metabolic stability (Qh %), % hepatic blood flow for input Cc1c(COc2ccccc2-c2cccc(N3CC[C@@]4(C(=O)O)C[C@H]4C3)n2)ccc2c1CCN(C1CCOCC1)C2 [Compound 3]
Out: <24%

In: Answer with reported Metabolic stability (Qh %), % hepatic blood flow of CCO[C@@H]1CN(c2nc(-c3cccc(C)c3OCc3cc(OC)c4c(c3F)CCN(C3CCOCC3)C4)cs2)CC[C@@H]1C(=O)O
Out: 38%

In: Annotate the compound Cc1ccc(OCc2cc(C)c3c(c2C)CCN(C2COC2)C3)c(-c2csc(N3CC[C@@]4(C(=O)O)C[C@H]4C3)n2)c1 with its measured Metabolic stability (Qh %), % hepatic blood flow.
Out: <24%
